Target: T1, full length human FLAG-LRRK2 (wild type) (human, UniProt Q5S007 1-2527, phosphoserine at 860, 910, 935, 955, 973 and 976 (mass spectrometry))
T1 construct: mature; also called full length LRRK2
T1 sequence (Q5S007 whole entry): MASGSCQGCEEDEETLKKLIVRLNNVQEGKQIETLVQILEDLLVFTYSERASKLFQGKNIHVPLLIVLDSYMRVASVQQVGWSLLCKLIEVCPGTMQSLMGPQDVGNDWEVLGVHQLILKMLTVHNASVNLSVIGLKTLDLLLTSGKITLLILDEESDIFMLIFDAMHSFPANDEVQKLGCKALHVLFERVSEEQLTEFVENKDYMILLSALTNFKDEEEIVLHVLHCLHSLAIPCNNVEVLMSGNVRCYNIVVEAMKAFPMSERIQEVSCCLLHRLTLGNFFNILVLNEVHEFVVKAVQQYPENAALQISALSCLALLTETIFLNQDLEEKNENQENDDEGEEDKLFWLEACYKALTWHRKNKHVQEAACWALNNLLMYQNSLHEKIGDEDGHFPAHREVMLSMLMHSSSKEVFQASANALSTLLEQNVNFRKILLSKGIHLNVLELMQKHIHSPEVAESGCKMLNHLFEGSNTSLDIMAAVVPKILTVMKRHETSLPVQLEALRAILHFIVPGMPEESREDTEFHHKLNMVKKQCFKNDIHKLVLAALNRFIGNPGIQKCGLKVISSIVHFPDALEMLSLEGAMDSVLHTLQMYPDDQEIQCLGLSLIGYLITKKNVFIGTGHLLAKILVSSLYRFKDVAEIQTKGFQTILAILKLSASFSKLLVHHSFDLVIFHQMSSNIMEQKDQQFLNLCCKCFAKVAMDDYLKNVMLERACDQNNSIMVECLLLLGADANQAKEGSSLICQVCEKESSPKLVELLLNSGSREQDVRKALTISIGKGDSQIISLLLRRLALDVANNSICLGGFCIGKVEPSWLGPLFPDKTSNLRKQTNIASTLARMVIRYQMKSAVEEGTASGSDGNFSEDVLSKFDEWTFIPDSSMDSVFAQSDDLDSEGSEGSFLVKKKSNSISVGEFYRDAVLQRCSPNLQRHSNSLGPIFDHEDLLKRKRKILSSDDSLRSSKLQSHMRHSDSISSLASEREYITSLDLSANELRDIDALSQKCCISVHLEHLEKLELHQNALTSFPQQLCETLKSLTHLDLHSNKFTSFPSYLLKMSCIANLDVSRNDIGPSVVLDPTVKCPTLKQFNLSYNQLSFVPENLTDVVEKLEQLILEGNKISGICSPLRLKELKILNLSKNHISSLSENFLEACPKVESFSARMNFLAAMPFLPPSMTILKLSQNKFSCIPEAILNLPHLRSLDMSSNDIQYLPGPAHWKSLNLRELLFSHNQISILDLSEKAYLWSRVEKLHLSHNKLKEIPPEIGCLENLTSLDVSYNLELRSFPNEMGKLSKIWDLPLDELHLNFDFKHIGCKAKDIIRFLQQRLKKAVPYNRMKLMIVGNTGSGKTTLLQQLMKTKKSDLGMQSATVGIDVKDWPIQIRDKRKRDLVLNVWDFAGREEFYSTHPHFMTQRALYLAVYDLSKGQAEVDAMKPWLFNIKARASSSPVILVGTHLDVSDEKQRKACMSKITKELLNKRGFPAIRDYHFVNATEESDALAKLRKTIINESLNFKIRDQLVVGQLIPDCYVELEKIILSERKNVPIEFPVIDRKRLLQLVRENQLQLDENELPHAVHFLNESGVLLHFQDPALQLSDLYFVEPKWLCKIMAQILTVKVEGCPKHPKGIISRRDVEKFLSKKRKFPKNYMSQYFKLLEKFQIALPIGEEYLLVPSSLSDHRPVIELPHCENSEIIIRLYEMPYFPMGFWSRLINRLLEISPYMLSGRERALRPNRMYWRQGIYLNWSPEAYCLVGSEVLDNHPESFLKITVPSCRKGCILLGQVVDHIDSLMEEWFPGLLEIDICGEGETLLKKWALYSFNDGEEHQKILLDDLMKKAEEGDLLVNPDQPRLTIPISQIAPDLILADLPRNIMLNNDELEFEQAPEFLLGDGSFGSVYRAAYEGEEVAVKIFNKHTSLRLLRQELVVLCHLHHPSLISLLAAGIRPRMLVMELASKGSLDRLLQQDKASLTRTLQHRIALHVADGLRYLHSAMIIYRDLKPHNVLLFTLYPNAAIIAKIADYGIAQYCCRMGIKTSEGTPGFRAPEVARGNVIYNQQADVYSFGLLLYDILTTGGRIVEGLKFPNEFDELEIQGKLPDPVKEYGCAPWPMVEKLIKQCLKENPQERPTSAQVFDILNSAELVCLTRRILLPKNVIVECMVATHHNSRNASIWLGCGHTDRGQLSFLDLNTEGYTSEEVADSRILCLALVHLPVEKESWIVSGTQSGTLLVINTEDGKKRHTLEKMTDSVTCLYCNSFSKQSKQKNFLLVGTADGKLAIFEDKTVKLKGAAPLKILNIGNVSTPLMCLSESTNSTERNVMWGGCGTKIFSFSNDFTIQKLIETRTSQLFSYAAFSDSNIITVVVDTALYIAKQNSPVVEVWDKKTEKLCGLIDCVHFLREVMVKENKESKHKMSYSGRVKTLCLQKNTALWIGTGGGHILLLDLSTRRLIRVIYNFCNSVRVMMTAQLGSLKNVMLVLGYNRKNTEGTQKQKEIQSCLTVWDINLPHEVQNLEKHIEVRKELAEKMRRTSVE
Test: glutathione-Sepharose affinity purification of GST tagged 14-3-3 isoforms from HEK-293 cells expressing FLAG-LRRK2, anti-FLAG immunoblot
Measure Name: binding result

Looking up GST tagged human 14-3-3 theta (other, As for GST tagged 14-3-3 beta; also called GST-14-3-3 theta; not shown: GST tag from the pEBG plasmid) MEKTELIQKAKLAEQAERYDDMATCMKAVTEQGAELSNEERNLLSVAYKNVVGGRRSAWRVISSIEQKTDTSDKKLQLIKDYREKVESELRSICTTVLELLDKYLIANATNPESKVFYLKMKGDYFRYLAEVACGDDRKQTIDNSQGAYQEAFDISKKEMQPTHPIRLGLALNFSVFYYEILNNPELACTLAKTAFDEAIAELDTLNEDSYKDSTLIMQLLRDNLTLWTSDSAGEECDAAEGAEN , I found its binding result recorded as binds

Looking up GST tagged human 14-3-3 eta (other, As for GST tagged 14-3-3 beta; also called GST-14-3-3 eta; not shown: GST tag from the pEBG plasmid) MGDREQLLQRARLAEQAERYDDMASAMKAVTELNEPLSNEDRNLLSVAYKNVVGARRSSWRVISSIEQKTMADGNEKKLEKVKAYREKIEKELETVCNDVLSLLDKFLIKNCNDFQYESKVFYLKMKGDYYRYLAEVASGEKKNSVVEASEAAYKEAFEISKEQMQPTHPIRLGLALNFSVFYYEIQNAPEQACLLAKQAFDDAIAELDTLNEDSYKDSTLIMQLLRDNLTLWTSDQQDEEAGEGN , I found its binding result recorded as binds
